The values you see were collected from patent US10045981B2.

test-target: EGFR (G719C) (Homo sapiens, UniProt P00533, G719C)
Sequence (P00533 25-1210 G719C): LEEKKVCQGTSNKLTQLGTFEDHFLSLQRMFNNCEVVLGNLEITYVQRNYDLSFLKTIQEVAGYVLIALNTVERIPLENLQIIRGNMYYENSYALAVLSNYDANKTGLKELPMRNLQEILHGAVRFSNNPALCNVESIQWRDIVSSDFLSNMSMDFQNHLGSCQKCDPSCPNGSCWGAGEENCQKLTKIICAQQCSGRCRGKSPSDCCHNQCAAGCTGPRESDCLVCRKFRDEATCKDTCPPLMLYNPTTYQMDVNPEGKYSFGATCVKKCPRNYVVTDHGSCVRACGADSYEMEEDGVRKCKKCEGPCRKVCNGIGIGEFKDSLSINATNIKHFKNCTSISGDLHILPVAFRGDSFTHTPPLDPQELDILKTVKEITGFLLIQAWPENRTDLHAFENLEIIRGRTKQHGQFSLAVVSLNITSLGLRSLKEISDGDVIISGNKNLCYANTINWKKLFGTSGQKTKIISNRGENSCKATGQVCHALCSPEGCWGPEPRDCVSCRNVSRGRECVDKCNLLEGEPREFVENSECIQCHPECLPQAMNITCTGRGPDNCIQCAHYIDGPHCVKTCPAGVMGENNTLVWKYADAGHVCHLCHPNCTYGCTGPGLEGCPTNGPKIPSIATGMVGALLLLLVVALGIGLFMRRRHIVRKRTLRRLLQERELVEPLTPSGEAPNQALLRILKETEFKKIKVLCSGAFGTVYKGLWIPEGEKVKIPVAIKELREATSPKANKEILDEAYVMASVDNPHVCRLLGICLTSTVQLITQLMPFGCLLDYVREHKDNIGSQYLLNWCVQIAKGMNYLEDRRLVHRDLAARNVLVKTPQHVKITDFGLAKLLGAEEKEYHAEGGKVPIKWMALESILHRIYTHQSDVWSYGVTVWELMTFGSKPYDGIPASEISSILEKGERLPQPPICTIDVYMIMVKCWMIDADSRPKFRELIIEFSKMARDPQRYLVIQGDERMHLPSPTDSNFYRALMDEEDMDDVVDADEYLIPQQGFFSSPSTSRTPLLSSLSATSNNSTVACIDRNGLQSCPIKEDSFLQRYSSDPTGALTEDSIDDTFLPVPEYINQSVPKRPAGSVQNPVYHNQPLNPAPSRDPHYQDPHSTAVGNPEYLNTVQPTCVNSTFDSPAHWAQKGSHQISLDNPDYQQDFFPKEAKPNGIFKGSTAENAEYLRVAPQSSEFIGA
run-description: Exemplary Kinase Panel Analysis
Format: biochemical
condition-label: 10 concentrations, 3-fold serial dilutions starting at 5 μM, duplicate
pIC50: −log10 of the molar value.
Measured pIC50 of individual entries
measured-parameter: pIC50

1. C=CC(=O)Nc1cc(CN2CCNC(=O)C2)cc(-c2cnc3ccccc3n2)c1: 6.71
2. C=CC(=O)Nc1cc(CC(=O)OC)cc(-c2cnc3ccccc3n2)c1: 6.37
3. C=CC(=O)Nc1cc(CN2CCN(C)C(=O)C2)cc(-c2cnc3ccccc3n2)c1: 7.18

---

run-description: Solubility in aqueous buffer
Type: physicochemical
condition-label: aqueous buffer, pH 5, aqueous buffer, pH 5.0; read-out: Solubility In Aqueous Buffer pH 5.0
measured-parameter: solubility (µM)

1) C=CC(=O)Nc1cc(CN2CCNC(=O)C2)cc(-c2cnc3ccccc3n2)c1 [Compound 1b]: 93
